System: PNT-2 cells
Assay: MTT cytotoxicity assay, normal prostate epithelial cells PNT-2
Assay type: cell-based
Details: Homo sapiens, PNT2; abstract; value in µM; read-out: IC50 PNT2 (remaining cell lines)
observation type: IC50

Quickly give me recorded IC50 for "COc1cc(-c2oc3cc(OC)c(O)c(O)c3c(=O)c2OC)ccc1O"
> 150 µM
